# experimental_target: ER (Homo sapiens, UniProt P03372)
# Construct: endogenous in cells
# assay_text: ER antagonism (T47D ERE luciferase), T47d-kb-Luc cells
# assay_setup: read-out: IC50 (ER antagonistm)
pIC50: −log10 of the molar value.
What pIC50 was measured for each of the following?

[ask] # pIC50 lookup, item CC/C(=C(/c1ccc(OCCN2CCN(CC3CCN(c4ccc5c(c4)C(=O)N(C4CCC(=O)NC4=O)C5=O)CC3)CC2)cc1)c1ccc(B(O)O)cc1)c1ccccc1 (stereo not drawn)
[reply] 7.30 to 8.00

[ask] Would you mind doing CC/C(=C(\c1ccc(B(O)O)cc1)c1ccc(N2CCN(CCC3CCN(c4ccc5c(c4)CN(C4CCC(=O)NC4=O)C5=O)CC3)CC2)cc1)c1ccccc1 (stereo not drawn) as well?
[reply] > 8.00

[ask] Would you mind doing CC/C(=C(\c1ccc(OCCN2CCN(CCCNc3ccc4c(c3)C(=O)N(C3CCC(=O)NC3=O)C4=O)CC2)cc1)c1ccc(B(O)O)cc1)c1ccccc1 (stereo not drawn) as well?
[reply] 7.30 to 8.00

[ask] Would you mind doing `CC/C(=C(\c1ccc(B(O)O)cc1)c1ccc(N2CCN(C(=O)N3CCN(c4ccc5c(c4)CN([C@H]4CCC(=O)NC4=O)C5=O)CC3)CC2)cc1)c1ccccc1` as well?
[reply] > 8.00

[ask] Would you mind doing CC/C(=C(\c1ccc(B2OC(C)(C)C(C)(C)O2)cc1)c1ccc(N2CCC(CCN3CCN(c4ccc5c(c4)CN(C4CCC(=O)NC4=O)C5=O)CC3)CC2)cc1)c1ccccc1 (stereo not drawn) as well?
[reply] > 8.00

[ask] Would you mind doing CC/C(=C(\c1ccc(OCCN2CCN(C(=O)N3CCC(N4CCN(c5ccc6c(c5)CN(C5CCC(=O)NC5=O)C6=O)CC4)CC3)CC2)cc1)c1ccc(B(O)O)cc1)c1ccccc1 (stereo not drawn) as well?
[reply] > 8.00

====

# experimental_target: ERα (Homo sapiens, UniProt P03372)
# Construct: endogenous in cells; host or cells: MCF-7
# assay_text: ER degradation in MCF-7 cells (Western blot)
# Type: cell-based
# assay_setup: ER degradation, 24 hours
What DC50 was measured for each of the following?

[ask] # DC50 lookup, item CC/C(=C(\c1ccc(B(O)O)cc1)c1ccc(N2CCN(CCN3CCN(c4ccc5c(c4)C(=O)N(C4CCC(=O)NC4=O)C5=O)CC3)CC2)cc1)c1ccccc1 (centres unmarked) [Compound 59]
[reply] 10 to 50 nM

[ask] Would you mind doing CC/C(=C(\c1ccc(B2OC(C)(C)C(C)(C)O2)cc1)c1ccc(N2CCC(CCN3CCN(c4ccc5c(c4)CN(C4CCC(=O)NC4=O)C5=O)CC3)CC2)cc1)c1ccccc1 (centres unmarked) [Compound 9] as well?
[reply] 10 to 50 nM

[ask] Would you mind doing CC/C(=C(\c1ccc(B(O)O)cc1)c1ccc(N2CCC(CN3CCN(c4ccc5c(c4)CN(C4CCC(=O)NC4=O)C5=O)CC3)CC2)cc1)c1ccccc1 (centres unmarked) [Compound 1] as well?
[reply] < 10 nM

[ask] Would you mind doing CC/C(=C(\c1ccc(B(O)O)cc1)c1ccc(N2CCC(CN3CCN(c4ccc5c(c4)C(=O)N(C4CCC(=O)NC4=O)C5)CC3)CC2)cc1)c1ccccc1 (centres unmarked) [Compound 3] as well?
[reply] > 50 nM

[ask] Would you mind doing CC/C(=C(/c1ccc(B(O)O)cc1)c1ccc(N2CCN(C(=O)N3CCN(c4ccc5c(c4)CN(C4CCC(=O)NC4=O)C5=O)CC3)CC2)cc1)c1ccccc1 (centres unmarked) [Compound 106] as well?
[reply] < 10 nM

====

# experimental_target: ER (Homo sapiens, UniProt P03372)
# Construct: endogenous in cells
# Sequence (P03372 1-595): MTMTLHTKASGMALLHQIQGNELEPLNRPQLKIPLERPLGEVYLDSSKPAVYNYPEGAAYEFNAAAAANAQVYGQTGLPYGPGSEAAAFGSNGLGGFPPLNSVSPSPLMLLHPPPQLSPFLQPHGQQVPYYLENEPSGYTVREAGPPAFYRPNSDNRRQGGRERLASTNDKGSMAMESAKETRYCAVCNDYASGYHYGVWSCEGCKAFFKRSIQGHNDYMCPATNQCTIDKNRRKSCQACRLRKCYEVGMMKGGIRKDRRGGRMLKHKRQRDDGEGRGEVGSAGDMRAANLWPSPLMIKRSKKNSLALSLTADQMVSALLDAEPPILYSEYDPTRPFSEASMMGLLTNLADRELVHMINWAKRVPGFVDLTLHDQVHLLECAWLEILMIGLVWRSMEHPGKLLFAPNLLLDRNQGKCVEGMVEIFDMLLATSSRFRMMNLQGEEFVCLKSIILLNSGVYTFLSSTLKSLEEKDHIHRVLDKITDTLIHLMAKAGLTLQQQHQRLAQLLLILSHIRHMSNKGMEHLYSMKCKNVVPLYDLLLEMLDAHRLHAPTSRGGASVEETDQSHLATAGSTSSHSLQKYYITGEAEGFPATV
# assay_text: ER antagonism (T47D ERE luciferase), T47d-kb-Luc cells
# assay_setup: read-out: IC50 (ER antagonistm)
pIC50: −log10 of the molar value.
parameter_measured: pIC50

[ask] # pIC50 lookup, item CC/C(=C(\c1ccc(B(O)O)cc1)c1ccc(N2CCN(CCCC3CCN(c4ccc5c(c4)CN(C4CCC(=O)NC4=O)C5=O)CC3)CC2)cc1)c1ccccc1 (centres unmarked)
[reply] 7.30 to 8.00

[ask] Would you mind doing CC/C(=C(/c1ccc(B(O)O)cc1)c1ccc(N2CCC(CNC3CCN(c4ccc5c(c4)CN(C4CCC(=O)NC4=O)C5=O)CC3)CC2)cc1)c1ccccc1 (centres unmarked) as well?
[reply] > 8.00

[ask] Would you mind doing CC/C(=C(/c1ccc(B2OC(C)(C)C(C)(C)O2)cc1)c1ccc(N2CCC(CCN3CCN(c4ccc5c(c4)CN(C4CCC(=O)NC4=O)C5=O)CC3)CC2)cc1)c1ccccc1 (centres unmarked) as well?
[reply] > 8.00

[ask] Would you mind doing CC/C(=C(/c1ccc(B(O)O)cc1)c1ccc(N2CCN(CCN3CCN(c4ccc5c(c4)CN(C4CCC(=O)NC4=O)C5=O)CC3)CC2)cc1)c1ccccc1 (centres unmarked) as well?
[reply] 7.30 to 8.00

[ask] Would you mind doing `CC/C(=C(/c1ccc(OCCN2CCN(CC3CCN(c4ccc5c(c4)CN([C@@H]4CCC(=O)NC4=O)C5=O)CC3)CC2)cc1)c1ccc(B(O)O)cc1)c1ccccc1` as well?
[reply] > 8.00

====

# experimental_target: ERα (Homo sapiens, UniProt P03372)
# Construct: endogenous in cells; host or cells: MCF-7
# assay_text: ER degradation in MCF-7 cells (Western blot)
# Assay type: cell-based
# assay_setup: ER degradation, 24 hours
parameter_measured: DC50

[ask] # DC50 lookup, item CC/C(=C(\c1ccc(B(O)O)cc1)c1ccc(N2CCN(CCC3CCN(c4ccc5c(c4)C(=O)N(C4CCC(=O)NC4=O)C5=O)CC3)CC2)cc1)c1ccccc1 (centres unmarked)
[reply] < 10 nM

[ask] Would you mind doing `CC/C(=C(\c1ccc(OCCN2CCC(CN3CCN(c4ccc5c(c4)CN([C@@H]4CCC(=O)NC4=O)C5=O)CC3)CC2)cc1)c1ccc(B(O)O)cc1)c1ccccc1` as well?
[reply] < 10 nM

[ask] Would you mind doing CC/C(=C(/c1ccc(O)cc1)c1ccc(N2CCN(C(=O)N3CCN(c4ccc5c(c4)CN(C4CCC(=O)NC4=O)C5=O)CC3)CC2)cc1)c1ccccc1 (centres unmarked) as well?
[reply] < 10 nM

[ask] Would you mind doing CCC(=C(c1ccc(OCCN2CCN(CC3CCN(c4ccc5c(c4)C(=O)N(C4CCC(=O)NC4=O)C5=O)CC3)CC2)cc1)c1ccc(B(O)O)cc1)c1ccccc1 (stereo in doubt) as well?
[reply] < 10 nM

[ask] Would you mind doing CC/C(=C(\c1ccc(B(O)O)cc1)c1ccc(N2CCC(CCN3CCN(c4ccc5c(c4)C(=O)N(C4CCC(=O)NC4=O)C5=O)CC3)CC2)cc1)c1ccccc1 (centres unmarked) as well?
[reply] 10 to 50 nM

[ask] Would you mind doing CC/C(=C(\c1ccc(OCCN2CCN(CC3CCN(c4ccc5c(c4)CN(C4CCC(=O)NC4=O)C5=O)CC3)CC2)cc1)c1ccc(B(O)O)cc1)c1ccccc1 (centres unmarked) as well?
[reply] < 10 nM

[ask] Would you mind doing CC/C(=C(\c1ccc(OCCN2CCN(CCCNc3ccc4c(c3)C(=O)N(C3CCC(=O)NC3=O)C4=O)CC2)cc1)c1ccc(B(O)O)cc1)c1ccccc1 (centres unmarked) as well?
[reply] 10 to 50 nM

[ask] Would you mind doing CC/C(=C(/c1ccc(OCCN2CCN(C(=O)N3CCC(N4CCN(c5ccc6c(c5)CN(C5CCC(=O)NC5=O)C6=O)CC4)CC3)CC2)cc1)c1ccc(B(O)O)cc1)c1ccccc1 (centres unmarked) as well?
[reply] 10 to 50 nM

[ask] Would you mind doing `CC/C(=C(/c1ccc(OCCN2CCN(C(=O)N3CCN(c4ccc5c(c4)CN([C@H]4CCC(=O)NC4=O)C5=O)CC3)CC2)cc1)c1ccc(B(O)O)cc1)c1ccccc1` as well?
[reply] < 10 nM

[ask] Would you mind doing `CC/C(=C(/c1ccc(O)cc1)c1ccc(OCCN2CCN(C(=O)N3CCN(c4ccc5c(c4)CN([C@H]4CCC(=O)NC4=O)C5=O)CC3)CC2)cc1)c1ccccc1` as well?
[reply] < 10 nM

[ask] Would you mind doing CC/C(=C(/c1ccc(B(O)O)cc1)c1ccc(N2CCN(CCCC3CCN(c4ccc5c(c4)CN(C4CCC(=O)NC4=O)C5=O)CC3)CC2)cc1)c1ccccc1 (centres unmarked) as well?
[reply] < 10 nM

All figures here come from patent US20220348595A1.
